pIC50: −log10 of the molar value.
Measured pIC50 (UniProt P49840)

Answered cases to consult:
1. CC[C@]1(c2cccc(-c3cnn4c3CCCC4)c2)C2=CN=NC2NC2=C1C(=O)NC(C)(C)C2 (stereo partly drawn)
5.30 to 6.00
2. CC[C@@]1(c2cccc(N(C)c3ccccn3)c2)C2=CN=NC2NC2=C1C(=O)CC(C)(C)C2 (stereo partly drawn)
> 7.00

Query string: Which pIC50 value is on record for C[C@@H]1C[C@]2(CCN1S(C)(=O)=O)C1=CN=NC1NC1=C2C(=O)CC(C)(C)C1 (stereo partly drawn) ?
Result string: > 7.00

----------
pIC50: −log10 of the molar value.
Assay system Glycogen synthase kinase-3 alpha (Homo sapiens); read-out recorded as pIC50.

Query string: For Glycogen synthase kinase-3 alpha (Homo sapiens), provide pIC50 of CC[C@]1(c2cccc(-c3ccnc(CCO)c3)c2)C2=CN=NC2NC2=C1C(=O)CC(C)(C)C2 (stereo partly drawn) please.
Result string: 5.30 to 6.00

Query string: Give Glycogen synthase kinase-3 alpha (Homo sapiens) pIC50 for CC[C@]1(c2cccc(-c3ccnn3C)c2)C2=CN=NC2NC2=C1C(=O)CC(C)(C)[C@H]2F (stereo partly drawn)
Result string: > 7.00

Query string: Lab note: need pIC50 for CC[C@@]1(c2cccc(C(F)(F)F)c2)C2=CN=NC2NC2=C1C(=O)CC1(CCCC1)C2 (stereo partly drawn) on Glycogen synthase kinase-3 alpha (Homo sapiens), anyone have it?
Result string: 6.00 to 7.00
